I'd be grateful if you could share measured activation factor for these entries.
target: Luciferin 4-monooxygenase (Photinus pyralis) (UniProt P08659); assay: FLuc activators, initial screening, artefact control for FLuc-dependent activation tests, biochemical, ATPlite luminescence (AID 1027); conditions: ATPlite luciferase biochemical, 10 min, at 10 µM, stronger effect = higher value, 0 = ATP-free wells, 1 = DMSO control
Sequence (P08659 whole entry, looked up): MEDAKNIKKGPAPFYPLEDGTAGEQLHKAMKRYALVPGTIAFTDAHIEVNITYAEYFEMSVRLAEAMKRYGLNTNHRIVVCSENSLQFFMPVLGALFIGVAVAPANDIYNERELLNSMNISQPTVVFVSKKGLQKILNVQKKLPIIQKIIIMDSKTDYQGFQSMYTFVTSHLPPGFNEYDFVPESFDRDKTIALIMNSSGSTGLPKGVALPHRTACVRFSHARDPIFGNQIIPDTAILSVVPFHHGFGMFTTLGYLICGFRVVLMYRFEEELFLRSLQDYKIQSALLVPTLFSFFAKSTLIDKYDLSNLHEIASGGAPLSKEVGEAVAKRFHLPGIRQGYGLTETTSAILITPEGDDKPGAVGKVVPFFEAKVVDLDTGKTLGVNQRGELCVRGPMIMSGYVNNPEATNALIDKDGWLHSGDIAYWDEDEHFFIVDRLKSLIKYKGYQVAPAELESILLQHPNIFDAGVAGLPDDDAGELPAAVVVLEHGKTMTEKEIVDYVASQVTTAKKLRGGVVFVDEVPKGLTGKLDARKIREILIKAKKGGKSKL
Screen size: about 200,000 compounds; fewer than 10 were called active. Only a sample is shown.

For this compound ( CN(C)c1ccnc(Nc2ccc(F)cc2)c1C#N ), measured activation factor is 1 (inactive)

The recorded activation factor for entry Cc1cccc(N2CCC(NCc3c(C(=O)N4CCCCC4)nc4c(C)cccn34)CC2)c1 equals 1 (inactive)

Cc1cc(C(=O)N/N=C\C(Br)=C\c2ccccc2)c(C)o1 yielded activation factor of 0.8 (inactive)

Lab note: CC(CO)N1CCS(=O)(=O)CC1 (stereo unspecified) gave activation factor of 1.1 (inactive)

Form field activation factor, entry Cc1ccc(S(=O)(=O)N2CCN(CC(=O)N/N=C/c3ccc(Br)s3)CC2)cc1 : 1.1 (inactive)

Just so you know, measured activation factor for CCc1ccc(C2C(C#N)=C(N)N(N(C)C)C3=C2C(=O)CCC3)s1 (stereo unspecified) came out at 1 (inactive)

Lab note: O=C(COC(=O)C1CCN(S(=O)(=O)c2ccc3c(c2)OCCO3)CC1)Nc1ccccc1OC(F)F gave activation factor of 1 (inactive)

The reported value for Cc1nc(-c2ccccc2)sc1C(=O)/C=C/N(C)C in terms of activation factor is 0.9 (inactive)

O=C(Cc1ccccc1)Nc1cccc(C(=O)N/N=C/c2ccco2)c1 yielded activation factor of 0.9 (inactive)

Recorded activation factor (compound Cc1ccc(-c2csc(NC(=O)Cn3[nH]c(=O)c4ccccc4c3=O)n2)cc1 ): 1 (inactive)

Measured activation factor, Cc1ccc(C(=O)C(=S)N2CCOCC2)cc1 : 1.1 (inactive)

* * *

target: Luciferin 4-monooxygenase (Photinus pyralis) (UniProt P08659); assay: FLuc activators, initial screening, artefact control for FLuc-dependent activation tests, biochemical, ATPlite luminescence (AID 1027); conditions: ATPlite luciferase biochemical, 10 min, at 10 µM, stronger effect = higher value, 0 = ATP-free wells, 1 = DMSO control
Among all 200,000 compounds or so, fewer than 10 were called active. Not all results are given here.
measured.property: activation factor
// response body must contain only the number

Record summary for CCCCOC(=O)c1ccc(NC(c2ccc(C)cc2)P(=O)(OC)OC)cc1 (stereo not given) : reported activation factor = 1

GET /value?item= COc1cc(OC)nc(N/N=C(\c2ccccc2)c2ccncc2)n1 &field=activation factor returns 1

Quick note, activation factor for Cc1cccc(N2CCN(C(=O)c3cccc(S(=O)(=O)N4CCc5ccccc5C4)c3)CC2C)c1 (stereo not given) landed at 1.1

Short answer for CCOc1ccc(-c2ccc(SCC(=O)N3CCOCC3)nn2)cc1 : activation factor was 0.2

# activation factor (molecule: Cc1ccc2[nH]cc(CCCN3C(=O)c4ccccc4C3=O)c2c1 ) is 1

* * *

target: Luciferin 4-monooxygenase (Photinus pyralis) (UniProt P08659); experiment: FLuc activators, initial screening, artefact control for FLuc-dependent activation tests, biochemical, ATPlite luminescence (AID 1027); conditions: ATPlite luciferase biochemical, 10 min, at 10 µM, stronger effect = higher value, 0 = ATP-free wells, 1 = DMSO control
The campaign covered roughly 200,000 compounds. Fewer than 10 were called active. A selection follows.
Task for the reader: assign each of the following compounds its reported activation factor.
Write the number on its own, no unit after it.

In plain terms, COc1cccc(CC2(CO)CCCN(CC3=Cc4cc(OC)ccc4OC3)C2)c1 (stereo unspecified) has a documented activation factor of 1.1

Form: compound = Cc1cccc(N2C(=O)SC(SC(=Nc3ccccc3)Nc3ccccc3)C2=O)c1 (stereo unspecified) ; activation factor = 1

Entry COc1ccc(NC(=O)CN2C(=O)C(c3ccccc3)=NC23CCCCCC3)cc1OC — recorded activation factor = 1

activation factor recorded for this compound, COC(=O)c1ccc(CSc2nnc(N)s2)o1 , is 1

Lab note: O=C(NNC(=S)NCCCN1CCOCC1)c1ccncc1 gave activation factor of 1.1

Summary for this compound, COC(=O)C[n+]1cccc2ccccc21 : activation factor is 1

In plain terms, CCCCN(CC)C(=O)c1ccccc1Oc1ccccc1 has a documented activation factor of 1

activation factor reported for this compound COc1ccc(C(=O)N2CCC(C(=O)Nc3ccc(C)cc3)CC2)cc1 : 1

Consider Cc1ccc(CSc2nc3[nH]ncc3c(=O)[nH]2)cc1 . Its measured activation factor is 0.6

activation factor measured on O=c1cc(CN2CCN(S(=O)(=O)/C=C/c3ccccc3)CC2)c2ccc(O)cc2o1 = 1

Reported activation factor of O=C(O)CC(Cc1ccccc1)C(=O)Nc1ccc([N+](=O)[O-])cc1 (stereo unspecified) : 1.1

* * *

target: Luciferin 4-monooxygenase (Photinus pyralis); assay: FLuc activators, initial screening, artefact control for FLuc-dependent activation tests, biochemical, ATPlite luminescence (AID 1027); settings: ATPlite luciferase biochemical, 10 min, at 10 µM, stronger effect = higher value, 0 = ATP-free wells, 1 = DMSO control
Out of some 200,000 compounds screened, fewer than 10 were called active. These entries were drawn from the full list.
Give measured activation factor for each item. Keep answers brief.
Write the value as a bare number.

Value of measured activation factor for the entry O=C(c1ccc(-c2ccccc2)cc1)C1CCCN(C(=O)c2cncs2)C1 (configuration not stated) : 1.1

Form: molecule = Cc1ccc(C(=O)O)cc1N1C(=O)CCCC1=O ; activation factor = 1

The measured activation factor associated with CN(CC(=O)Nc1ccc(S(=O)(=O)N2CCCC2)cc1)Cc1ccc(Cl)c(Cl)c1 reads 1

Reported activation factor ( CC(OC(=O)CCc1nc(=O)c2ccccc2n1C)C(=O)NCc1ccc2c(c1)OCO2 (configuration not stated) ) = 1.1

The molecule identified as Cc1ccc(CC2S/C(=C(/C#N)C(=O)N3CCOCC3)N(c3ccccc3)C2=O)cc1 (configuration not stated) registered its activation factor at 1.1

Form: molecule = CC(=O)Nc1ccc(NC(=O)CSc2nnc(COc3ccccc3C)n2CC2CCCO2)cc1 (configuration not stated) ; activation factor = 1

Lab book: activation factor of S=c1[nH]nc(NCCc2ccccc2)s1 noted as 0.9

Documented activation factor of C/C=N/NC(=O)CCCC(=O)N/N=C/C : 1

Record CCc1cc(CNC(=O)CC2C(=O)NCCN2CC2CCCCC2)on1 (configuration not stated) , field activation factor: 1.1

activation factor measured on C=C(C)c1cccc(C(C)(C)NC(=O)NC2CCCC2)c1 = 1

Short answer for Cc1cc(Oc2ccc(Cl)cc2)nc(SCC(=O)c2ccccc2)n1 : activation factor was 1

So for C/C(=N/NS(=O)(=O)c1ccccc1)c1ccc(NC(=O)C(F)(F)F)cc1 , the logged activation factor turned out to be 1

activation factor measured on COc1cccc(/C=C2\SC(=N)N(c3ccc(F)cc3)C2=O)c1 = 1.1

Item: O=S(=O)(c1ccccc1)c1nc(-c2ccccc2F)oc1NCc1cccnc1 | activation factor: 1.1

Given item COC(=O)c1c(C)oc2ccc(N(C(=O)Oc3ccccc3)S(=O)(=O)c3ccccc3)cc12 , the value recorded as its activation factor is 1.1

Kindly note the recorded activation factor for COc1ccccc1C1SCCN1C(=O)c1ccc([N+](=O)[O-])cc1 (configuration not stated) , which is 1

activation factor reported for this molecule Cc1c(-c2cccc(Cl)c2)nc2ccccc2c1C(=O)OCC(=O)N(C)C1CCS(=O)(=O)C1 (configuration not stated) : 1

Kindly note the recorded activation factor for CCc1nnc(NS(=O)(=O)c2ccc(NC(=S)NC(=O)/C=C/c3cccs3)cc2)s1 , which is 1

# activation factor (molecule: COc1cc(NC(=O)CSc2nnc3ccc(-c4ccncc4)nn23)cc(OC)c1 ) is 1

Per the records, this molecule ( Cc1nc(N2CCCCC2)sc1C=O ) has activation factor equal to 1

According to the records, this molecule Cc1cccc(N2C(=O)CC(SC(N)=Nc3ccccc3)C2=O)c1 (configuration not stated) displays activation factor of 1.1

molecule O=C(c1ccc(S(=O)(=O)c2ccccc2)cc1)N1CCCCCC1 , activation factor observed: 1

* * *

target: Luciferin 4-monooxygenase (Photinus pyralis); test: FLuc activators, initial screening, artefact control for FLuc-dependent activation tests, biochemical, ATPlite luminescence (AID 1027); conditions: ATPlite luciferase biochemical, 10 min, at 10 µM, stronger effect = higher value, 0 = ATP-free wells, 1 = DMSO control
The campaign covered roughly 200,000 compounds. Fewer than 10 were called active. The list is a sample of the results.
Field: activation factor. Provide a value for each of the compounds that follow.

The reported activation factor of the compound Clc1ccc(-c2csc(-c3ccncc3)n2)cc1 was 0.9 (inactive)

Measured activation factor, N/C(Cc1ccc([N+](=O)[O-])cc1)=N\OC(=O)C1CCCCC1 : 1 (inactive)

response.value for CCN=C1S/C(=C\c2cc(Br)ccc2OCC(=O)OCC)C(=O)N1CC (field: activation factor) = 1 (inactive)

# activation factor of CCOc1ccc(NC(=S)N2CCC(N(C)CC3CCCO3)CC2)cc1 (stereo not drawn) = 1 (inactive)

Documented activation factor of COc1cccc(-n2c(=S)[nH]c3c(oc4ccccc43)c2=O)c1 : 1 (inactive)

The compound listed as COCCCNCCOCCOc1ccc(Cl)cc1Br has a reported activation factor of 1 (inactive)

# activation factor of COc1ccc(NC(=O)N2CCCC(c3nc(-c4ccc(F)cc4)no3)C2)cc1 (stereo not drawn) = 1 (inactive)

Notebook: S=C(Nc1cccc(Br)c1)N1CCn2cccc2C1c1cccnc1 (stereo not drawn) , activation factor read as 1.1 (inactive)

For record COc1ccccc1NC(=O)C[n+]1ccccc1 the listed activation factor is 1 (inactive)

The measured activation factor associated with Cc1ccc2[nH]c(C)c(CCNC(=O)NC3CCCCC3)c2c1 reads 1 (inactive)

Lab note: COc1ccc(CCC(=O)OCC(=O)Nc2ccc(C)c(S(=O)(=O)N(C)C)c2)cc1 gave activation factor of 1 (inactive)

Notebook: NC1=NC(=O)C(Cc2cccc(Cl)c2)S1 (stereo not drawn) , activation factor read as 1 (inactive)

For CC1CCN(c2ccc(C(=O)Nc3nnc(C4CC4)s3)cc2[N+](=O)[O-])CC1 the compound record lists activation factor as 1 (inactive)

Lookup result for CCC1CCCCN1C(=O)CSc1nc2c(c(=O)n(C)c(=O)n2C)n1C (stereo not drawn) ; measured activation factor: 1 (inactive)

Documented activation factor of COc1ccc(C(=O)NC(=S)Nc2ccccc2N2CCN(S(C)(=O)=O)CC2)cc1OC : 1.1 (inactive)

get_value(item= COc1ccc(C(=O)Nc2ccc3nc(N4CCCCC4)cc(C)c3c2)cc1OC , readout=activation factor) returns 1.1 (inactive)

# activation factor (compound: COC(=O)c1ccc(/C=N/OCC(=O)Nc2cc(F)ccc2F)cc1 ) is 1 (inactive)

The compound listed as Cc1ccc2c(c1)C1CN(C)CCC1N2C(=O)c1ccccc1NS(=O)(=O)c1ccc(F)cc1C (stereo not drawn) shows activation factor equal to 1.1 (inactive)

activation factor reported for this compound O=c1[nH]n2c(-c3ccccc3)nc(O)c2c2ccccc12 : 1 (inactive)

Form: compound = CN1CCN(c2ccc(NC(=O)c3ccc4c(c3)[nH]c(=O)n4Cc3ccc(F)cc3)cc2)CC1 ; activation factor = 1 (inactive)

Looking up C=CCn1c(SCC(=O)CC(=O)OCC)nc2cc(C(=O)N3CCC(C(N)=O)CC3)ccc2c1=O , I see its activation factor listed as 1 (inactive)

What the record says about CNC(=O)/C(C#N)=C/c1c(F)cccc1Cl : activation factor is 1 (inactive)

CCOC(=O)C1CCN(C(=O)/C=C/c2cc(OC)c(OC)c(OC)c2)CC1 yielded activation factor of 1 (inactive)
